Test: OV-KATE Cancer Cell Toxicity qHTS against the NCATS CANVASS Library (AID 1347345)
Details: OV-KATE cells viability, CellTiter-Glo luminescence, 72 h; series mostly up to 38.3 µM
Results filed as inconclusive are left out. Activity calls are given as the source filed them. Calls follow the shape of the dose curve; as a rule, active = well fitted cell-killing curve with a large enough effect; inconclusive = small, poorly fitted or top-dose-only effect; inactive = flat fitted curve, though single readings scatter. Square brackets hold non-standard residues; d marks the D form. Peptide text beside a SMILES is read from it. ξ: configuration not given here. ξL = CC(C)CC(N)C(=O)O
Response enum: class 1 (active), class 0 (inactive)

Before answering, review these 8 worked examples.
C[C@H](c1cnc(N)[nH]1)c1ccc(O)c2[nH]cc(-c3cnc(-c4c[nH]c5ccccc45)c(=O)[nH]3)c12 = class 0
C=C1[C@@]2(C)CC3C4(C)CCC(O)C(C)(C)C4CCC3(C)[C@]1(C(=O)OC)C(=O)C(C)(O)C2=O (stereo partly specified) = class 0
C/C1=C/[C@@H](C)[C@H](O)[C@@H](O)/C=C/CC/C=C/C(=O)O[C@@H]1[C@H](C)C(=O)CCCC1CC(=O)NC(=O)C1 = class 0
C[C@@]12CCC[C@@](C)(C(=O)O)[C@H]1C[C@@H](O)[C@@]13C[C@@H](CC[C@@H]21)[C@](C)(O)C3 = class 0
CC(=O)O[C@H]1c2ccccc2-c2c3c(cc4c2[C@@H]1N(C(C)=O)CC4)OCO3 = class 0
COC(=O)c1cccc2oc(-c3cccc4oc(-c5c(C)cccc5O)nc34)nc12 = class 0
C=C1C(=O)O[C@H]2[C@H]1CCC(C)=C1CC[C@@](C)(O)[C@@H]12 = class 1
CC(=O)N[C@H](C)c1nc(/C=C/C=C/C(=O)CC2CC(=O)CC[C@]2(C)O)cs1 (stereo partly specified) = class 0

Turning now to a further record.
Ask: What is the recorded call for this molecule in the test? CC[C@@H](C)[C@H]1NC(=O)C(CC(C)C)NC(=O)[C@@H](CC(C)C)NC(=O)[C@H](Cc2c[nH]c3ccccc23)NC(=O)CNC(=O)[C@@H](CC(N)=O)NC1=O (stereo partly drawn) (cyclo(GW[dL][ξL][dI][dN]))
Result: class 0

###

Experiment: Primary qHTS for inhibitors of nuclear receptor binding SET domain protein 2 (NSD2) in an RCH-ACV wild type WT cells (2C) (AID 1645877); also: nearly all actives have a fitted effect of over 70% in size
Conditions: RCH-ACV (leukaemia line) NSD2 WT (2C) viability, CellTiter-Glo, 72 h; series mostly up to 44.9 µM
Records with an inconclusive call do not appear. Activity calls are given as the source filed them. Calls follow the shape of the dose curve; as a rule, active = well fitted inhibition curve with a large enough effect; inconclusive = small, poorly fitted or top-dose-only effect; inactive = no such curve, though single readings can be large or run the other way.
Response enum: active, inactive

Before answering, review these 8 worked examples.
O=C(C[C@@H]1C/C=C\CCC(=O)O[C@H](c2ccccc2)CNC1=O)NCc1ccc(Cl)cc1 = inactive
NC(=O)c1cccc2c(NC(CN3CCC3)c3ccc(Cl)c(C(F)(F)F)c3)ncnc12 (stereo not drawn) = active
O=C([O-])C[O-].[Pt+2] = inactive
CCC1CCCCN1C(=O)n1ncc(C(O)(c2ccccc2)c2ccccc2)n1 (stereo not drawn) = active
Nc1nccc2c1ncn2[C@@H]1C=C(CO)[C@@H](O)[C@H]1O = active
CNCCCOc1cc(F)c(-c2c(Cl)nc3ncnn3c2N[C@@H](C)C(F)(F)F)c(F)c1 = active
C[C@H]1[C@H](C)CC[C@]2(C(=O)O)CC[C@]3(C)C(=CC[C@@H]4[C@@]5(C)CC[C@H](O)C(C)(C)[C@@H]5CC[C@]43C)[C@H]12 = inactive
Cc1ccc(NS(=O)(=O)c2cccc(C#N)c2)c2[nH]cc(C#N)c12 = active

Ask: What is the recorded call for this molecule in the test? CCO[C@@H]1OC(=O)C[C@@H]1NC(=O)[C@@H]1CCCN2C(=O)CC[C@H](NC(=O)c3nccc4ccccc34)C(=O)N12
Result: inactive

Ask: What is the recorded call for this molecule in the test? CSC[C@H]1CN(Cc2c[nH]c3c(N)ncnc23)C[C@@H]1O
Result: inactive

Ask: What is the recorded call for this molecule in the test? Cc1ccc(S(=O)(=O)Nc2cc(-c3ccc(C#N)s3)ccc2C)cc1
Result: active

Ask: What is the recorded call for this molecule in the test? Cc1ccc(NS(=O)(=O)c2ccc3c(c2)C2C=CCC2C(c2ccc(C(=O)O)cc2)N3)cc1C (stereo not drawn)
Result: inactive

Ask: What is the recorded call for this molecule in the test? C=CC(=O)Nc1cccc(Oc2nc(Nc3ccc(N4CCN(C)CC4)c(F)c3)nc3[nH]ccc23)c1
Result: active

Recorded values, source PubChem BioAssay (NCATS).
